- subjectOfTest: Alpha-1A adrenergic receptor (Rattus norvegicus, UniProt P43140)
- Sequence (P43140 whole entry): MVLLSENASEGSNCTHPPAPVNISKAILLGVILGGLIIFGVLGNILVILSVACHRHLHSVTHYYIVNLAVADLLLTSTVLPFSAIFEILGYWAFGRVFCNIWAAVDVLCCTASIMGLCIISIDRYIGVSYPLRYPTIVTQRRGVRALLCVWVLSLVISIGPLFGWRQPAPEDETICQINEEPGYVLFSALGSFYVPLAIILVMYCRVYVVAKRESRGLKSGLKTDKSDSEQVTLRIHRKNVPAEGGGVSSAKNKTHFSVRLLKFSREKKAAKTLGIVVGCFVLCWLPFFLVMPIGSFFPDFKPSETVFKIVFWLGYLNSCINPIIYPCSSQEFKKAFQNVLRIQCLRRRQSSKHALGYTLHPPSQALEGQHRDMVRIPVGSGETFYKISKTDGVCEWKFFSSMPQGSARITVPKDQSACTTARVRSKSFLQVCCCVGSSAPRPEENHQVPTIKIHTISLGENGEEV
- protocol: Antagonism of the norepinephrine induced contraction of rat isolated prostatic vas deferens.
- Assay type: functional
- particulars: read-out: pA2 (converted)
assayReadout: log10 Kb (log10 of the value in nM)

[
  {
    "substanceSmiles": "COc1cc2nc(N(C)CCCCCCN(C)C(=O)c3ccc(CN(C)C)cc3)nc(N)c2cc1OC",
    "log10 Kb": 1.86
  },
  {
    "substanceSmiles": "COc1cc2nc(N(C)CCSSCCN(C)C(=O)c3ccc(CCl)o3)nc(N)c2cc1OC",
    "log10 Kb": 1.22
  },
  {
    "substanceSmiles": "COc1cc2nc(N(C)CCCCCCN(C)C(=O)c3cccc(CN)c3)nc(N)c2cc1OC",
    "log10 Kb": 1.68
  },
  {
    "substanceSmiles": "COc1cc2nc(N(C)CCCCCCN(C)C(=O)c3ccccc3)nc(N)c2cc1OC",
    "log10 Kb": 1.58
  },
  {
    "substanceSmiles": "COc1cc2nc(N(C)CCCCCCN(C)C(=O)c3cccc(CCl)c3)nc(N)c2cc1OC",
    "log10 Kb": 1.90
  },
  {
    "substanceSmiles": "CNCCCCCCN(C)Cc1ccc(C(=O)N(C)CCCCCCN(C)c2nc(N)c3cc(OC)c(OC)cc3n2)cc1",
    "log10 Kb": 2.28
  },
  {
    "substanceSmiles": "COc1cc2nc(N(C)CCCCCCN(C)C(=O)c3ccc(CCl)cc3)nc(N)c2cc1OC",
    "log10 Kb": 1.89
  },
  {
    "substanceSmiles": "COc1cc2nc(N(C)CCCCCCN(C)C(=O)c3cccc(CN(C)C)c3)nc(N)c2cc1OC",
    "log10 Kb": 1.74
  },
  {
    "substanceSmiles": "CNCCCCCCN(C)Cc1cccc(C(=O)N(C)CCCCCCN(C)c2nc(N)c3cc(OC)c(OC)cc3n2)c1",
    "log10 Kb": 0.95
  }
]

Values from ChEMBL document CHEMBL1131296
